Cited source: PubChem BioAssay

Entries and their composite z-score values follow.
- Test system: Human papillomavirus type 1a protein E7 (residues 44-93)
- EXPERIMENTAL_PROTOCOL: HPV1a E7 fragment binders on microarrays, primary screen, biochemical, small-molecule microarray, residues 44-93, 635 nm fluorescence (AID 1108);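 also: E7 fragment applied at 1 µg/mL in TBST for 1 h at 4 C; score combines spot fluorescence with its signal to noise ratio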
- DETAILS: small-molecule microarray binding, fluorescence 635 nm; higher = more signal
RESULT_TYPE: composite z-score

INSERT INTO assay_data (molecule, test_system, endpoint_result) VALUES
  ('COCCOC(=O)N1C(=O)[C@@]2(c3cc(C#CC4(O)CCCCCC4)ccc31)[C@H](c1ccc(OCCO)cc1)N1[C@H](c3ccccc3)[C@H](c3ccccc3)OC(=O)[C@H]1[C@@H]2C(=O)N1CCCCCCC1', 'Human papillomavirus type 1a protein E7 (residues 44-93)', 1.41),
  ('Cc1ccc(S[C@]2(C(=O)NCCN3CCOCC3)CC(=O)N(C3CCCCC3)[C@@H]2c2ccc(CO)cc2I)cc1', 'Human papillomavirus type 1a protein E7 (residues 44-93)', 1.46),
  ('CCCCCN1CC=CC23O[C@@H]4C=CCOC(=O)[C@@H]4[C@H]2C(=O)N(CCCCCO)[C@@H]3C1=O (stereo partly drawn)', 'Human papillomavirus type 1a protein E7 (residues 44-93)', -0.678);

---

The entries below come with measured composite z-score values attached.
- TEST_SYSTEM: Epidermal growth factor receptor (Homo sapiens)
- EXPERIMENTAL_PROTOCOL: EGFR binders on small-molecule microarrays, primary screen, biochemical, small-molecule microarray, 635 nm fluorescence (AID 1104);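 also: score merges 667 nm emission intensity with spot signal to noise over triplicate slides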
- DETAILS: EGFR binding, higher = more signal
RESULT_TYPE: composite z-score

INSERT INTO assay_data (molecule, endpoint_result) VALUES
  ('CC(C)CNC(=O)[C@@H]1c2ccccc2C(=O)N(Cc2ccccc2Cl)[C@H]1c1ccc(CO)cc1', -0.519),
  ('O=c1cccc(-c2ccccc2C(F)(F)F)o1', -0.955),
  ('CN(C)CCCNC(=O)[C@@]1(Cc2ccccc2I)c2ccccc2C(=O)N(Cc2ccccc2)[C@H]1c1ccc(CO)cc1', 0.17),
  ('CC(C)c1ccc(NN2C(C(O)C(C)C)C=CC3C(=O)N(c4ccccc4)C(=O)C32)cc1 (centres undefined)', 0.389),
  ('COc1ccc([Si](C)(C)[C@@H]2[C@@H](CC(=O)N(CCO)Cc3ccccc3)O[C@]3(C(=O)N(Cc4ccc(N5CCC5=O)cc4)c4ccccc43)[C@H]2C)cc1', 0.359),
  ('COCCCNC(=O)[C@@H]1c2ccccc2C(=O)N(C2CCCCC2)[C@H]1c1ccc(CO)cc1', -1.22),
  ('CCCC[C@H]1OB(O)C[C@H]2C1=C(C)C[C@H]1C(=O)C=CC(=O)[C@H]12', 0.475),
  ('CCOC(=O)C1=CC[C@@H](c2ccccc2)N(S(=O)(=O)C[Si](C)(C)C)[C@H]1c1ccccc1', 0.461),
  ('C[N+](C)(C)CCCCCCNC(=O)[C@H]1C[C@H]2C(=O)NCC(=O)N2[C@H]1c1cccc(OCCO)c1', 0.228);

---

Form field: composite z-score (one value per entry).
- TEST_SYSTEM: Streptavidin (Streptomyces avidinii) (UniProt P22629)
- Sequence (P22629 whole entry, looked up): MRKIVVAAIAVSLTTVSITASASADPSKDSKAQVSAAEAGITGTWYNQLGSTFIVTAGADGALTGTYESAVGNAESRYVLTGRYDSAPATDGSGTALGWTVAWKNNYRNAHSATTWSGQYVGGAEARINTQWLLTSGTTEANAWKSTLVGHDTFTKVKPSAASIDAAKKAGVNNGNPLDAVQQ
- EXPERIMENTAL_PROTOCOL: streptavidin binders on small-molecule microarray, primary screen, artefact control for SMM compound annotation, biophysical, 635/667 nm fluorescence (AID 1147);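 also: signal reflects streptavidin binding to arrayed compounds as a control protein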
- DETAILS: streptavidin binding, higher = more signal
RESULT_TYPE: composite z-score

INSERT INTO assay_data (compound, test_system, endpoint_result) VALUES
  ('O=C1c2ccccc2[C@](Cc2ccccc2I)(C(=O)O)[C@H](c2ccc(CO)cc2)N1Cc1ccccc1', 'Streptavidin (Streptomyces avidinii) (UniProt P22629)', 0.201),
  ('CN1C(=O)C2C=CC(C(O)c3ccc(-c4ccccc4)s3)N(Nc3ccccc3)C2C1=O (stereo not drawn)', 'Streptavidin (Streptomyces avidinii) (UniProt P22629)', 2.23),
  ('[N-]=[N+]=NCc1ccccc1[C@@H]1OC(c2ccc(OCCCO)cc2)=N[C@]1(Cc1ccccc1)C(=O)NCc1ccccc1', 'Streptavidin (Streptomyces avidinii) (UniProt P22629)', 1.24),
  ('COC(=O)[C@@]1(Cc2ccc(F)cc2)[C@H]2c3cc(C(=O)N(C)C)n(CCN4CCOCC4)c3C[C@H]2CN1C(=O)c1ccccc1', 'Streptavidin (Streptomyces avidinii) (UniProt P22629)', 1.36),
  ('Cc1c(NC(=O)/C(C#N)=C/c2ccc(Cl)cc2)c(=O)n(-c2ccccc2)n1C', 'Streptavidin (Streptomyces avidinii) (UniProt P22629)', 1.33),
  ('[N-]=[N+]=NCc1ccccc1C[C@]1(C(=O)NCc2ccccc2)N=C(c2ccc(OCCCO)cc2)O[C@H]1c1ccccc1CN=[N+]=[N-]', 'Streptavidin (Streptomyces avidinii) (UniProt P22629)', 0.208),
  ('C=C(COC)/C(=C/C[C@H](OC(=O)c1ccncc1)c1cccc(OCCO)c1)c1cnc2ccccc2c1', 'Streptavidin (Streptomyces avidinii) (UniProt P22629)', 1.7),
  ('CN(C)CCCNC(=O)[C@@]1(Cc2ccccc2I)c2ccccc2C(=O)N(Cc2ccccc2)[C@H]1c1ccc(CO)cc1', 'Streptavidin (Streptomyces avidinii) (UniProt P22629)', -0.203);
